Some variants, each annotated with its measured protein stability index.
B1: NECAB1 (parent)
chain: NLDTEELCEYFSQHLGEYENVLAA

variants of: B1; test: protein stability index of a GFP-peptide fusion (GPS, HEK-293T) (PSI 1-6); higher = more stable; conditions: c terminus: a fixed tail appended;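 note: lentivirally expressed fusions sorted by FACS into six bins by GFP to DsRed ratio, PSI derived from sequencing read proportions per bin multiplied by bin number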
The response must contain the number and no unit.

> print(dat)
   mutation.code  reported.result
1           E19Q              2.4
2            E6T             2.34
3            E5S             1.93
4           E19C             1.83
5            L7P             4.29
6            L7S             4.53

# protein stability index (variant: C8M ) is 3.41

# protein stability index (variant: Y10R ) is 4.08

# protein stability index (variant: N20K ) is 1.94

# protein stability index (variant: L7Q ) is 4.13

# protein stability index (variant: E5F ) is 1.47

# protein stability index (variant: G16Y ) is 1.58

# protein stability index (variant: E6W ) is 2.23

# protein stability index (variant: A23Y ) is 2.2

# protein stability index (variant: S12I ) is 2.68

# protein stability index (variant: Q13L ) is 2.08

# protein stability index (variant: E5M ) is 1.63

# protein stability index (variant: N1K ) is 3.33

Cited source: the supplement of paper PMC10567573
